# System Tested: MEK
# Measurement Notes: Cascade assay for inhibitors of the MAP kinase pathway (In Vitro)
# Type: biochemical
pIC50: −log10 of the molar value.
Metric Name: pIC50

# Structure Smiles, pIC50
measured = [
    ("Cc1cc(I)ccc1Nc1c(C(=O)O)cc(F)c(F)c1F", 7.85),
]

I = Cc1cc(I)ccc1Nc1ccc(Br)cc1C(N)=O
II = O=C(O)c1ccc(F)cc1Nc1ccc(I)cc1I
Which is greater in pIC50, the first item I or the second item II ? In your reply, give the label of the chosen option.
I
(I: 6.39, II: 6.00)

P = Cc1cc(I)ccc1Nc1ccc(Br)cc1C(=O)NCCCN1CCN(CCO)CC1
Q = Cc1cc(I)ccc1Nc1ccc(I)cc1C(=O)O
Which is greater in pIC50, the first item P or the second item Q ? In your reply, give the label of the chosen option.
P
(P: 6.60, Q: 6.24)
